Biological target: Sushi domains (SD1/2) protein of the GABAB1a (GB1a) subunit, recombinant
Sequence (Q9Z0U4 29-158): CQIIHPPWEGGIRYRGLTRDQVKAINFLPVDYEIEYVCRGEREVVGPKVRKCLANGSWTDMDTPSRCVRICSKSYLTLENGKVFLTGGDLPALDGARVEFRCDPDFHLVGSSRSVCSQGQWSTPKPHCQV
Assay: FP competition
Non-standard residues stand in square brackets, D forms with d. NMeD = CN[C@@H](CC(=O)O)C(=O)O; Sar = CNCC(=O)O
assay_readout: Ki (nM)

Below: 4 binders and their reported Ki.
binder: Ac-EDDS[NMeD]VWWGGADTD-NH2 (SMILES CC(=O)N[C@@H](CCC(=O)O)C(=O)N[C@@H](CC(=O)O)C(=O)N[C@@H](CC(=O)O)C(=O)N[C@@H](CO)C(=O)N(C)[C@@H](CC(=O)O)C(=O)N[C@H](C(=O)N[C@@H](Cc1c[nH]c2ccccc12)C(=O)N[C@@H](Cc1c[nH]c2ccccc12)C(=O)NCC(=O)NCC(=O)N[C@@H](C)C(=O)N[C@@H](CC(=O)O)C(=O)N[C@H](C(=O)N[C@@H](CC(=O)O)C(N)=O)[C@@H](C)O)C(C)C) [EDDS(N-Me-D)…]
assay_readout: Ki
unit_spec: nM
measured_value: 3760
--
binder: Ac-DSADAEEDDSDVWWGGADTDYAD-NH2
assay_readout: Ki
unit_spec: nM
measured_value: 513
--
binder: Ac-ETEFIAWGPT[Sar]DED-NH2 (SMILES CC[C@H](C)[C@H](NC(=O)[C@H](Cc1ccccc1)NC(=O)[C@H](CCC(=O)O)NC(=O)[C@@H](NC(=O)[C@H](CCC(=O)O)NC(C)=O)[C@@H](C)O)C(=O)N[C@@H](C)C(=O)N[C@@H](Cc1c[nH]c2ccccc12)C(=O)NCC(=O)N1CCC[C@H]1C(=O)N[C@H](C(=O)N(C)CC(=O)N[C@@H](CC(=O)O)C(=O)N[C@@H](CCC(=O)O)C(=O)N[C@@H](CC(=O)O)C(N)=O)[C@@H](C)O) […(N-Me-G)DED]
assay_readout: Ki
unit_spec: nM
measured_value: 132
--
binder: Ac-ETEFIAWG[Sar]TGDED-NH2 (SMILES CC[C@H](C)[C@H](NC(=O)[C@H](Cc1ccccc1)NC(=O)[C@H](CCC(=O)O)NC(=O)[C@@H](NC(=O)[C@H](CCC(=O)O)NC(C)=O)[C@@H](C)O)C(=O)N[C@@H](C)C(=O)N[C@@H](Cc1c[nH]c2ccccc12)C(=O)NCC(=O)N(C)CC(=O)N[C@H](C(=O)NCC(=O)N[C@@H](CC(=O)O)C(=O)N[C@@H](CCC(=O)O)C(=O)N[C@@H](CC(=O)O)C(N)=O)[C@@H](C)O) [peptide 38 (Ac-ETEFIAWG(N-Me-G)TGDED-NH2)]
assay_readout: Ki
unit_spec: nM
measured_value: 32

(I) Ac-PWAIVWGPTVS-NH2
(II) Ac-EDDDWIDWYDSDDDGGGGSRRRRRRRR-NH2 [16-FL-R8 (…)]
# returns the entry with the larger Ki; inputs I and II Record your answer as the label of the chosen record.
I
